ASSAY: endothelial E-selectin upregulation by compounds – imaging, HUVEC, cherry-picked samples, dose response (AID 977605);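 also: signal is the share of imaged cells scored positive for E-selectin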
APPLIED_CONDITIONS: HUVEC E-selectin immunostaining, at 19.5 µM (top of the series), percent of TNF-alpha response over vehicle
Calls of active or inactive are those of the source.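 The calls were made as follows: active = fitted curve reaches 40% activation below the top valid tested dose, in every test run; inconclusive = test runs disagree on the call; inactive = the rest, including effects opposite to the expected direction.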
Give activation for every item shown.

Any idea what its activation is? The molecule is C[C@H]1CN([C@@H](C)CO)C(=O)c2cc(NC(=O)NC3CCCCC3)ccc2O[C@@H]1CN(C)S(=O)(=O)c1ccc(Cl)cc1 2.58% (inactive)

Any idea what its activation is? The molecule is CC(C)NC(=O)Nc1cccc2c1O[C@H](CN(C)Cc1ccc(Cl)c(Cl)c1)[C@@H](C)CN([C@@H](C)CO)C2=O 0.01% (inactive)

Any idea what its activation is? The molecule is C[C@H](CO)N1C[C@H](C)[C@@H](CN(C)S(=O)(=O)c2cn(C)cn2)Oc2ccc(NS(=O)(=O)c3ccc(Cl)cc3)cc2C1=O -0.286% (inactive)

Any idea what its activation is? The molecule is C[C@@H]1CN([C@H](C)CO)C(=O)c2cc(C#Cc3cccc(F)c3)cnc2O[C@H]1CN(C)C(=O)C1CCC1 0.008% (inactive)

Any idea what its activation is? The molecule is C[C@H](CO)N1C[C@H](C)[C@@H](CN(C)Cc2ccc(Oc3ccccc3)cc2)Oc2ccc(NC(=O)Nc3ccc(C(F)(F)F)cc3)cc2CC1=O -0.23% (inactive)

Any idea what its activation is? The molecule is Cc1cc(C(=O)Nc2cccc3c2O[C@@H](CN(C)S(=O)(=O)c2ccc(F)cc2)[C@@H](C)CN([C@H](C)CO)C3=O)n(C)n1 0.077% (inactive)

Any idea what its activation is? The molecule is COc1ccc(S(=O)(=O)Nc2ccc3c(c2)C(=O)N([C@@H](C)CO)C[C@H](C)[C@@H](CN(C)C(=O)Nc2cccc4ccccc24)O3)cc1 -0.208% (inactive)

====

ASSAY: endothelial E-selectin upregulation by compounds – imaging, HUVEC, cherry-picked samples, dose response (AID 977605);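 also: signal is the share of imaged cells scored positive for E-selectin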
APPLIED_CONDITIONS: HUVEC E-selectin immunostaining, at 19.5 µM (top of the series), percent of TNF-alpha response over vehicle
Give activation for every item shown.
# output: bare number, implied unit %

Any idea what its activation is? The compound is COc1ccc(N2C(=O)c3ccccc3C(C)(C)C2=O)cc1 -0.152

Any idea what its activation is? The compound is COc1ccc(S(=O)(=O)N(C)C[C@@H]2Oc3ccc(NC(=O)c4ccncc4)cc3C(=O)N([C@@H](C)CO)C[C@@H]2C)cc1 -0.183

Any idea what its activation is? The compound is C[C@H]1CN([C@@H](C)CO)C(=O)Cc2cc(NC(=O)c3ccncc3)ccc2O[C@H]1CN(C)Cc1ccc(C(=O)Nc2ccccc2N)cc1 6.93

Any idea what its activation is? The compound is C[C@@H]1CN([C@H](C)CO)C(=O)c2cc(NC(=O)Cn3cnnn3)ccc2O[C@H]1CN(C)S(=O)(=O)c1ccccc1 0

Any idea what its activation is? The compound is C[C@@H]1CN([C@@H](C)CO)C(=O)Cc2cc(NC(=O)c3ccncc3)ccc2O[C@@H]1CN(C)S(=O)(=O)c1cn(C)cn1 -0.153

Any idea what its activation is? The compound is O=C(c1ccco1)N1CCN(C(=O)C2CC2)CC1 -0.098

Any idea what its activation is? The compound is C[C@@H]1CN([C@H](C)CO)C(=O)c2cccc(NS(C)(=O)=O)c2O[C@H]1CN(C)Cc1ccncc1 1.77

Any idea what its activation is? The compound is O=C(Cc1ccc(-n2c(=O)c3sccc3n(Cc3ccc(F)cc3)c2=O)cc1)NCc1ccco1 0.008

Any idea what its activation is? The compound is COc1cccc(NC(=O)c2ccc(OC(F)(F)F)cc2)c1 0.305

Any idea what its activation is? The compound is C[C@@H]1CN([C@@H](C)CO)C(=O)c2cccc(NC(=O)C3CC3)c2O[C@H]1CN(C)Cc1ccccc1 0.172

Any idea what its activation is? The compound is CCN(CC)C(=O)c1cn(-c2cccc(OC)c2)c(=O)c2ccccc12 -0.108

Any idea what its activation is? The compound is Cc1cccc(NC(=O)CCCN2C(=O)C(c3ccccc3)Oc3cccnc32)c1C (centres undefined) 0.811

Any idea what its activation is? The compound is COc1ccccc1OCC(=O)Nc1ccc(S(=O)(=O)N2CCN(C)CC2)cc1 -0.127

Any idea what its activation is? The compound is C[C@H](CO)N1C[C@H](C)[C@@H](CN(C)Cc2ccccc2)Oc2c(NC(=O)C3CC3)cccc2C1=O -0.084

Any idea what its activation is? The compound is CC(Sc1ncnc2sc(-c3ccccc3)cc12)C(=O)N1CCNC1=O (centres undefined) 0.007

Any idea what its activation is? The compound is CCN(CC)CCN(C(=O)Cn1nnc(-c2ccc(C)o2)n1)C(C(=O)NC(C)(C)C)c1cccs1 (centres undefined) -0.044

Any idea what its activation is? The compound is COc1ccc(NC(=O)Nc2cccc3c2O[C@@H](CN(C)C(=O)NC2CCCCC2)[C@@H](C)CN([C@H](C)CO)C3=O)cc1 0.334

Any idea what its activation is? The compound is CCc1ccc(N2CC(C(=O)Nc3ccc(F)cc3)CC2=O)cc1 (centres undefined) 0.132

Any idea what its activation is? The compound is C[C@@H]1CN([C@@H](C)CO)C(=O)Cc2cc(NC(=O)Nc3ccc4c(c3)OCO4)ccc2O[C@H]1CN(C)C -0.168

Any idea what its activation is? The compound is COc1ccc(-c2nnc3n2CCCCC3)cc1 0.032

Any idea what its activation is? The compound is C[C@@H]1CN([C@@H](C)CO)C(=O)c2cc(NS(=O)(=O)c3cccs3)ccc2O[C@@H]1CN(C)S(C)(=O)=O -0.005

Any idea what its activation is? The compound is Cc1ccc(S(=O)(=O)Nc2cc(S(=O)(=O)N3CCCCC3)ccc2N2CCOCC2)cc1 0.047

Any idea what its activation is? The compound is Cc1ccc(S(=O)(=O)N[C@@H](Cc2ccccc2)C(=O)N2CCC(C(=O)N[C@@H](CCC(N)=O)C(=O)O)CC2)cc1 0.009

Any idea what its activation is? The compound is CC12CCC(=O)N1C(C(=O)Nc1cc(Cl)ccc1N1CCOCC1)CS2 (centres undefined) -0.124

Any idea what its activation is? The compound is C[C@@H]1CN([C@H](C)CO)C(=O)c2cccc(NC(=O)c3ccncc3)c2O[C@H]1CN(C)S(=O)(=O)c1ccccc1 2.7

Any idea what its activation is? The compound is C[C@@H]1CN([C@@H](C)CO)C(=O)Cc2cc(NC(=O)C3CC3)ccc2O[C@@H]1CN(C)C(=O)Nc1ccccc1 0.276

Any idea what its activation is? The compound is C[C@H]1CN([C@@H](C)CO)C(=O)c2cc(NC(=O)CCCN(C)C)ccc2O[C@H]1CN(C)Cc1ccc(C(F)(F)F)cc1 -0.127

Any idea what its activation is? The compound is C[C@H]1CN([C@@H](C)CO)C(=O)Cc2cc(NC(=O)Nc3ccc(F)cc3)ccc2O[C@H]1CN(C)C(=O)Nc1ccc(C(F)(F)F)cc1 0.219

Any idea what its activation is? The compound is CCc1ccc(C(C(=O)NC2CCCCC2)N(C(=O)c2csnn2)C2CC2)cc1 (centres undefined) -0.021

Any idea what its activation is? The compound is C[C@@H]1CN([C@H](C)CO)C(=O)c2cccc(NC(=O)C3CC3)c2O[C@@H]1CN(C)CC1CC1 -0.106

Any idea what its activation is? The compound is C[C@@H]1CN([C@H](C)CO)C(=O)c2cc(NS(=O)(=O)c3cn(C)cn3)ccc2O[C@H]1CN(C)C(=O)Nc1ccc2c(c1)OCO2 0.041

Any idea what its activation is? The compound is Cc1noc(C)c1COc1ccccc1C(=O)N1CCN(S(=O)(=O)c2ccc(F)c(F)c2)CC1 0.069

Any idea what its activation is? The compound is CCOc1ccc(NC(=O)CNC(=O)c2ccc(OC)cc2)cc1 0.033

Any idea what its activation is? The compound is COc1ccc(CN(C)C[C@@H]2Oc3c(NC(=O)Nc4ccc(F)cc4)cccc3C(=O)N([C@@H](C)CO)C[C@H]2C)cc1 8.09

====

Give activation for every item shown.
ASSAY: endothelial E-selectin upregulation by compounds – imaging, HUVEC, cherry-picked samples, dose response (AID 977605);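 also: signal is the share of imaged cells scored positive for E-selectin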
APPLIED_CONDITIONS: HUVEC E-selectin immunostaining, at 19.5 µM (top of the series), percent of TNF-alpha response over vehicle
# output: bare number, implied unit %

Any idea what its activation is? The compound is Cc1ccc(S(=O)(=O)N2CCOCC2)cc1C(=O)NC1CCCC1 -0.154

Any idea what its activation is? The compound is COc1ccc(NC(=O)c2cc(-c3cccs3)on2)c(OC)c1 1.59

Any idea what its activation is? The compound is Cc1ccc(-n2ncc3c(=O)[nH]c(SC(C)C)nc32)cc1 0.023

Any idea what its activation is? The compound is Nc1nnc(SCc2nnc(-c3ccccc3)o2)s1 0.69

Any idea what its activation is? The compound is C[C@H](CO)N1C[C@H](C)[C@H](CN(C)CC2CC2)Oc2c(NC(=O)C3CC3)cccc2C1=O -0.037

Any idea what its activation is? The compound is C[C@@H]1CN([C@H](C)CO)C(=O)c2cccc(NC(=O)C3CC3)c2O[C@@H]1CN(C)Cc1ccccc1 0.474

Any idea what its activation is? The compound is Cc1ccc(S(=O)(=O)N(C)C[C@@H]2Oc3c(NS(=O)(=O)c4ccc(Cl)cc4)cccc3C(=O)N([C@@H](C)CO)C[C@H]2C)cc1 -0.172

Any idea what its activation is? The compound is Cc1ccc(C(=O)NNC(=O)CSc2nnc(CNc3ccc(F)cc3)n2C)cc1 -0.046

Any idea what its activation is? The compound is COc1ccc(CN(C)C[C@@H]2Oc3ccc(NC(=O)c4ccncc4)cc3C(=O)N([C@@H](C)CO)C[C@H]2C)cc1 19.2

Any idea what its activation is? The compound is C[C@H](CO)N1C[C@H](C)[C@@H](CN(C)S(=O)(=O)c2cn(C)cn2)Oc2ccc(NC(=O)Nc3ccc(F)cc3)cc2CC1=O 0.1

Any idea what its activation is? The compound is CCC(CC)NC(=O)Nc1ccc(F)c(Cl)c1 0.516

Any idea what its activation is? The compound is N#CC1(NC(=O)CN2C(=O)c3ccccc3C2=O)CCCCC1 16.1

Any idea what its activation is? The compound is C[C@H](CO)N1C[C@H](C)[C@H](CN(C)Cc2ccncc2)Oc2ccc(NC(=O)CCC(F)(F)F)cc2CC1=O -0.107

Any idea what its activation is? The compound is Cc1noc(C)c1NC(=O)Nc1ccc2c(c1)CC(=O)N([C@@H](C)CO)C[C@H](C)[C@@H](CN(C)S(=O)(=O)c1ccccc1)O2 -0.1

Any idea what its activation is? The compound is C[C@@H]1CN([C@H](C)CO)C(=O)Cc2cc(NC(=O)Nc3ccccc3)ccc2O[C@@H]1CN(C)C 4.89

Any idea what its activation is? The compound is C[C@H](CO)N1C[C@H](C)[C@@H](CN(C)C)Oc2cc(C#Cc3ccccc3F)ccc2S1(=O)=O 0.115

Any idea what its activation is? The compound is Cc1ccc(S(=O)(=O)N(C)C[C@H]2Oc3ccc(NC(=O)CCCN(C)C)cc3C(=O)N([C@H](C)CO)C[C@H]2C)cc1 -0.247

Any idea what its activation is? The compound is CC(C)NC(=O)Nc1cccc2c1O[C@@H](CN(C)Cc1ccc(C(F)(F)F)cc1)[C@@H](C)CN([C@H](C)CO)C2=O 0.009

Any idea what its activation is? The compound is C[C@@H]1CN([C@@H](C)CO)C(=O)c2cccc(NS(=O)(=O)c3ccc(F)cc3)c2O[C@H]1CN(C)Cc1ccc(C(=O)O)cc1 -0.15

Any idea what its activation is? The compound is COc1ccc(NC(=O)Nc2cccc3c2O[C@H](CN(C)C(=O)NC2CCCCC2)[C@H](C)CN([C@H](C)CO)C3=O)cc1 0.915

Any idea what its activation is? The compound is COc1ccc(-c2nc3cc(C)c(Br)c(C)n3c2CC(C)(C)C)cc1OC 0.052

Any idea what its activation is? The compound is Cc1noc(C)c1S(=O)(=O)N(C)C[C@H]1Oc2ccc(NC(=O)C3CC3)cc2CC(=O)N([C@@H](C)CO)C[C@@H]1C 32.2

Any idea what its activation is? The compound is CCOc1cnc(C(=O)NNC(=O)c2ccccc2Br)o1 0.602
